TESTED TARGET: Carbonic anhydrase 2 (Homo sapiens, UniProt P00918)
Please note: Ki exactly at 10 nM is Not met. Only values below 10 nM get Met.

STRUCTURE NOTATION: NS(=O)(=O)c1ccc(CNCc2cc(=O)oc3cc(Cl)ccc23)cc1
CLASS ASSIGNMENT: Not met

STRUCTURE NOTATION: NS(=O)(=O)c1ccc(NCc2cc(=O)oc3cc(Cl)ccc23)cc1
CLASS ASSIGNMENT: Not met

STRUCTURE NOTATION: NS(=O)(=O)c1cccc(NCc2cc(=O)oc3cc(Cl)ccc23)c1
CLASS ASSIGNMENT: Not met

STRUCTURE NOTATION: Cn1nc(S(N)(=O)=O)s/c1=N\S(=O)(=O)c1ccc(NCc2cc(=O)oc3cc(Cl)ccc23)cc1
CLASS ASSIGNMENT: Met

STRUCTURE NOTATION: NS(=O)(=O)c1cc(S(N)(=O)=O)c(NCc2cc(=O)oc3cc(Cl)ccc23)cc1Cl
CLASS ASSIGNMENT: Not met

STRUCTURE NOTATION: NS(=O)(=O)c1nnc(NN2C(=O)c3cccnc3C2=O)s1
CLASS ASSIGNMENT: Met

STRUCTURE NOTATION: NS(=O)(=O)c1nnc(NCc2cc(=O)oc3cc(Cl)ccc23)s1
CLASS ASSIGNMENT: Met

STRUCTURE NOTATION: NS(=O)(=O)c1nnc(NS(=O)(=O)c2ccc(NCc3cc(=O)oc4cc(Cl)ccc34)cc2)s1
CLASS ASSIGNMENT: Met

STRUCTURE NOTATION: Cn1nc(S(N)(=O)=O)s/c1=N\Cc1cc(=O)oc2cc(Cl)ccc12
CLASS ASSIGNMENT: Met

STRUCTURE NOTATION: NS(=O)(=O)c1ccc(NS(=O)(=O)c2ccc(NCc3cc(=O)oc4cc(Cl)ccc34)cc2)cc1
CLASS ASSIGNMENT: Met

STRUCTURE NOTATION: NS(=O)(=O)c1ccc(CCNCc2cc(=O)oc3cc(Cl)ccc23)cc1
CLASS ASSIGNMENT: Not met

STRUCTURE NOTATION: NS(=O)(=O)c1ccc(NNCc2cc(=O)oc3cc(Cl)ccc23)cc1
CLASS ASSIGNMENT: Not met

STRUCTURE NOTATION: NS(=O)(=O)c1nnc(NC(=O)CCNCc2cc(=O)oc3cc(Cl)ccc23)s1
CLASS ASSIGNMENT: Met

###

TEST DETAILS: physchem
CONDITIONS USED: buffer, pH 7.4
Description: Solubility (hydrochloride salt) in buffer at pH 7.4 and at 25 degree celsius.
READOUT NAME: solubility (mM)

COMPOUND: CCN(Cc1cc(=O)oc2cc(Cl)ccc12)C1CC(C)S(=O)(=O)c2sc(S(N)(=O)=O)cc21 (centres undefined)
TEST VALUE: 41
--
COMPOUND: NS(=O)(=O)c1nnc(NCc2cc(=O)oc3cc(Cl)ccc23)s1
TEST VALUE: 54
--
COMPOUND: NS(=O)(=O)c1nnc(NN2C(=O)c3cccnc3C2=O)s1
TEST VALUE: 72
--
COMPOUND: NS(=O)(=O)c1nnc(NC(=O)CCNCc2cc(=O)oc3cc(Cl)ccc23)s1
TEST VALUE: 62

###

Entries annotated with measured Kin
Species: Oryctolagus cuniculus

COMPOUND: NS(=O)(=O)c1nnc(NN2C(=O)c3cccnc3C2=O)s1
Kin [h⁻¹]: 2500

COMPOUND: NS(=O)(=O)c1nnc(NC(=O)CCNCc2cc(=O)oc3cc(Cl)ccc23)s1
Kin [h⁻¹]: 3300

COMPOUND: NS(=O)(=O)c1nnc(NCc2cc(=O)oc3cc(Cl)ccc23)s1
Kin [h⁻¹]: 2800

COMPOUND: CCN(Cc1cc(=O)oc2cc(Cl)ccc12)C1CC(C)S(=O)(=O)c2sc(S(N)(=O)=O)cc21 (centres undefined)
Kin [h⁻¹]: 2100

###

TESTED TARGET: Carbonic anhydrase 1 (Homo sapiens)
Sequence (P00915 whole entry): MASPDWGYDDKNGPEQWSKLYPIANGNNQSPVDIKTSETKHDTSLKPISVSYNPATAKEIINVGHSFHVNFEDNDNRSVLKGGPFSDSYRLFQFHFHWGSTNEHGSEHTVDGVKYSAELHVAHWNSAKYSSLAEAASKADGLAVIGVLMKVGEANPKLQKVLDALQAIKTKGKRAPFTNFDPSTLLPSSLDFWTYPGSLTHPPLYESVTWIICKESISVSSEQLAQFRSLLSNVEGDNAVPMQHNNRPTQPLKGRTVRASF
pKi: −log10 of the molar value.
Use 6 as the dividing line for pKi, with the line itself on the Met side and lower values as Not met.

STRUCTURE NOTATION: NS(=O)(=O)c1nnc(NN2C(=O)c3cccnc3C2=O)s1
CLASS ASSIGNMENT: Met
//
STRUCTURE NOTATION: NS(=O)(=O)c1ccc(NS(=O)(=O)c2ccc(NCc3cc(=O)oc4cc(Cl)ccc34)cc2)cc1
CLASS ASSIGNMENT: Met
//
STRUCTURE NOTATION: NS(=O)(=O)c1ccc(NNCc2cc(=O)oc3cc(Cl)ccc23)cc1
CLASS ASSIGNMENT: Not met
//
STRUCTURE NOTATION: Cn1nc(S(N)(=O)=O)s/c1=N\S(=O)(=O)c1ccc(NCc2cc(=O)oc3cc(Cl)ccc23)cc1
CLASS ASSIGNMENT: Met
//
STRUCTURE NOTATION: NS(=O)(=O)c1cccc(NCc2cc(=O)oc3cc(Cl)ccc23)c1
CLASS ASSIGNMENT: Not met
//
STRUCTURE NOTATION: NS(=O)(=O)c1ccc(NCc2cc(=O)oc3cc(Cl)ccc23)c(Br)c1
CLASS ASSIGNMENT: Met
//
STRUCTURE NOTATION: NS(=O)(=O)c1ccc(NCc2cc(=O)oc3cc(Cl)ccc23)cc1
CLASS ASSIGNMENT: Not met
//
STRUCTURE NOTATION: NS(=O)(=O)c1cc(S(N)(=O)=O)c(NCc2cc(=O)oc3cc(Cl)ccc23)cc1Cl
CLASS ASSIGNMENT: Met
//
STRUCTURE NOTATION: NS(=O)(=O)c1nnc(NCc2cc(=O)oc3cc(Cl)ccc23)s1
CLASS ASSIGNMENT: Met

###

Entries annotated with measured Delta IOP
Species on record: Oryctolagus cuniculus

MOLECULE: NS(=O)(=O)c1nnc(NC(=O)CCNCc2cc(=O)oc3cc(Cl)ccc23)s1
Delta IOP, mmHg: 8.3
--
MOLECULE: Cn1nc(S(N)(=O)=O)s/c1=N\Cc1cc(=O)oc2cc(Cl)ccc12
Delta IOP, mmHg: 6
--
MOLECULE: NS(=O)(=O)c1nnc(NCc2cc(=O)oc3cc(Cl)ccc23)s1
Delta IOP, mmHg: 5.8
--
MOLECULE: CCN(Cc1cc(=O)oc2cc(Cl)ccc12)C1CC(C)S(=O)(=O)c2sc(S(N)(=O)=O)cc21 (centres undefined)
Delta IOP, mmHg: 3.7

###

CONDITIONS USED: octanol/water
Description: Partition coefficient (logD) (chloroform/buffer)
READOUT NAME: logD

COMPOUND: NS(=O)(=O)c1nnc(NC(=O)CCNCc2cc(=O)oc3cc(Cl)ccc23)s1
READOUT NAME: logD
TEST VALUE: 0.683

COMPOUND: NS(=O)(=O)c1nnc(NCc2cc(=O)oc3cc(Cl)ccc23)s1
READOUT NAME: logD
TEST VALUE: 0.558

COMPOUND: NS(=O)(=O)c1nnc(NN2C(=O)c3cccnc3C2=O)s1
READOUT NAME: logD
TEST VALUE: 0.315

COMPOUND: CCN(Cc1cc(=O)oc2cc(Cl)ccc12)C1CC(C)S(=O)(=O)c2sc(S(N)(=O)=O)cc21 (centres undefined)
READOUT NAME: logD
TEST VALUE: 1.762

###

TESTED TARGET: Carbonic anhydrase 4 (Bos taurus)
Sequence (Q95323 whole entry): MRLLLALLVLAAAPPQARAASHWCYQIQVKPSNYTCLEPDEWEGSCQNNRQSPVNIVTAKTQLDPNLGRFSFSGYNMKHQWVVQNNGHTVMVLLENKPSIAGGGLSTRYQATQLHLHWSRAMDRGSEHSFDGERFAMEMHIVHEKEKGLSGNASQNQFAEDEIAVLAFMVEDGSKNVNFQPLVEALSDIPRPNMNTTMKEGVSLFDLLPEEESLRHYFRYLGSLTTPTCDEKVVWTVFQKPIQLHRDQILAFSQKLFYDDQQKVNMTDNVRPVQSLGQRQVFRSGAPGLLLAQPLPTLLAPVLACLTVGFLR
Entries annotated with measured Ki

MOLECULE: Cn1nc(S(N)(=O)=O)s/c1=N\S(=O)(=O)c1ccc(NCc2cc(=O)oc3cc(Cl)ccc23)cc1
UNIT LABEL: nM
Ki: 0.6
//
MOLECULE: NS(=O)(=O)c1ccc(CCNCc2cc(=O)oc3cc(Cl)ccc23)cc1
UNIT LABEL: nM
Ki: 225
//
MOLECULE: NS(=O)(=O)c1cc(S(N)(=O)=O)c(NCc2cc(=O)oc3cc(Cl)ccc23)cc1Cl
UNIT LABEL: nM
Ki: 50
//
MOLECULE: NS(=O)(=O)c1ccc(CNCc2cc(=O)oc3cc(Cl)ccc23)cc1
UNIT LABEL: nM
Ki: 240
//
MOLECULE: CCN(Cc1cc(=O)oc2cc(Cl)ccc12)C1CC(C)S(=O)(=O)c2sc(S(N)(=O)=O)cc21 (stereo unspecified)
UNIT LABEL: nM
Ki: 25
//
MOLECULE: NS(=O)(=O)c1nnc(NC(=O)CCNCc2cc(=O)oc3cc(Cl)ccc23)s1
UNIT LABEL: nM
Ki: 16
//
MOLECULE: Cn1nc(S(N)(=O)=O)s/c1=N\Cc1cc(=O)oc2cc(Cl)ccc12
UNIT LABEL: nM
Ki: 16
//
MOLECULE: NS(=O)(=O)c1nnc(NS(=O)(=O)c2ccc(NCc3cc(=O)oc4cc(Cl)ccc34)cc2)s1
UNIT LABEL: nM
Ki: 4
//
MOLECULE: NS(=O)(=O)c1ccc(NNCc2cc(=O)oc3cc(Cl)ccc23)cc1
UNIT LABEL: nM
Ki: 320
//
MOLECULE: NS(=O)(=O)c1cccc(NS(=O)(=O)c2ccc(NCc3cc(=O)oc4cc(Cl)ccc34)cc2)c1
UNIT LABEL: nM
Ki: 30
//
MOLECULE: NS(=O)(=O)c1nnc(NCc2cc(=O)oc3cc(Cl)ccc23)s1
UNIT LABEL: nM
Ki: 15
//
MOLECULE: NS(=O)(=O)c1ccc(NCc2cc(=O)oc3cc(Cl)ccc23)c(F)c1
UNIT LABEL: nM
Ki: 110
//
MOLECULE: NS(=O)(=O)c1ccc(NCc2cc(=O)oc3cc(Cl)ccc23)cc1
UNIT LABEL: nM
Ki: 170
//
MOLECULE: NS(=O)(=O)c1cc(S(N)(=O)=O)c(NCc2cc(=O)oc3cc(Cl)ccc23)c(Cl)c1Cl
UNIT LABEL: nM
Ki: 49
//
MOLECULE: NS(=O)(=O)c1ccc(NS(=O)(=O)c2ccc(NCc3cc(=O)oc4cc(Cl)ccc34)cc2)cc1
UNIT LABEL: nM
Ki: 14
//
MOLECULE: NS(=O)(=O)c1nnc(NN2C(=O)c3cccnc3C2=O)s1
UNIT LABEL: nM
Ki: 18
